tested on: MDA-MB-231; test: Antiproliferative activity against human MDA-MB-231 cells measured by MTT assay; assay type: functional, cell-based
pIC50: −log10 of the molar value.
readout-type: pIC50

O=S(=O)(Nc1ccc(Nc2nc(Nc3ccc(F)cc3)cc(C(F)(F)F)n2)cc1)c1ccccc1OC(F)(F)F = 4.68
COc1ccc(Nc2cc(C(F)(F)F)nc(Nc3ccc(NS(=O)(=O)c4ccc(C(F)(F)F)cc4)cc3)n2)cc1 = 4.63
Cc1cc(Nc2ccc(F)cc2)nc(Nc2ccc(NS(=O)(=O)c3ccc(C(F)(F)F)cc3)cc2)n1 = 4.76
COc1ccc(Nc2ccnc(Nc3ccc(NS(=O)(=O)c4ccc(C(F)(F)F)cc4)cc3)n2)cc1 = 4.57
Cc1cc(Nc2ccc(F)cc2)nc(Nc2ccc(NS(=O)(=O)c3ccccc3OC(F)(F)F)cc2)n1 = 4.62
COc1ccc(C(=O)Nc2ccc(Nc3nccc(Nc4ccc(OC)cc4C)n3)cc2)cc1 = 4.63
